- Target: T1, recombinant cynomologus N-terminal CCR6 peptide Fc (cynomolgus monkey; human)
- T1 construct: It differs from the human construct only in the CCR6 N-terminus; also called Cyno CCR6-Fc; cynoCCR6-Nter-Fc
- Assay text: SPR, cynomolgus CCR6 N-terminal Fc fusion coupled on the sensor chip, FAB as analyte
pKd: −log10 of the molar value.

Binder	pKd
VH5/VL1-C9-G29A FAB (Fab, V domains shown) VH: EVQLVESGGGLVQPGGSLRLSCAASGFSFSDYYMYWVRQAPGKGLEWVSYITNGGITYYPDSVKGRFTISRDNSKNTLYLQMNSLRAEDTAVYYCTSPLRGAWFAYWGQGTLVTVSS VL: DVVMTQSPLSLPVTLGQPASISCRSSQSIVHSNANTYLEWYQQRPGQSPRLLIYKVSNRFSGVPDRFSGSGSGTDFTLKISRVEAEDVGVYYCFQGTYYPLTFGQGTKLEIK	8.55
